Test system: SK-MEL-2
assay-remarks: NCI tumour cell line growth inhibition, 48 h
Active and inactive are the calls of the source. Rule as the data show it: active = GI50 up to about 1.1 µM and inactive = higher.
As shown below, each of these compounds has a reported GI50 value.

>>> endpoint_result("COc1c(O)cc2ccnc3c2c1N(C)C=C3")
"> 100 µM (inactive)"
>>> endpoint_result("COc1ccccc1Cn1c2c(c3cc(O)ccc31)C(=O)c1ccccc1C2=O")
"38.6 µM (inactive)"
>>> endpoint_result("C[C@]12CC[C@H](O)CC1=CC[C@@H]1C2CC[C@]2(C)C(=O)NC(=O)CC12 (stereo partly drawn)")
"64.7 µM (inactive)"
>>> endpoint_result("O=[N+]([O-])c1ccc(Nc2cccc3c4cc[nH]c(-c5ccccc5)c-4nc23)c([N+](=O)[O-])c1")
"> 100 µM (inactive)"
>>> endpoint_result("CSc1ccc2c(c1)c(CCN)c(C)n2Cc1ccccc1Cl")
"1.8 µM (inactive)"

// field: GI50; key: "COC(=O)c1c(O)ccc2c1c1c(n2Cc2cc(OC)cc(OC)c2)C(=O)c2ccccc2C1=O" ; value = 10.9 µM (inactive)

// field: GI50; key: "N#C/C(=C/NC(=S)NCc1ccccc1)C(N)=O" ; value = > 100 µM (inactive)

// field: GI50; key: "Cc1ccccc1NC(=S)N/N=C1\C(=O)Nc2ccccc21" ; value = > 100 µM (inactive)

// field: GI50; key: "O=[N+]([O-])c1ccc(Cl)c(/C=N/C23CC4CC(CC(C4)C2)C3)c1" ; value = > 10 µM (inactive)

// field: GI50; key: "Cc1cc(Cl)ccc1NC(=O)/C(Cc1nc2ccc(C(=O)c3ccccc3)cc2nc1O)=N/NC(=O)c1ccncc1" ; value = > 100 µM (inactive)

// field: GI50; key: "c1cc(Sc2nc(Sc3ccncc3)nc(Sc3ccncc3)n2)ccn1" ; value = > 100 µM (inactive)

// field: GI50; key: "Oc1ccc(O)c(CNc2ccccc2)c1" ; value = 24.2 µM (inactive)

// field: GI50; key: "CC(=O)OCc1c2ccccc2c(C)c2c1cc(F)c1ccccc12" ; value = 15.2 µM (inactive)

// field: GI50; key: CCCCCCCCCCCCCCCCCC(=O)OCC1OC(OC)C(NC(=O)N(CCCl)N=O)C(O)C1O (stereo not drawn) ; value = 45.9 µM (inactive)

* * *

Tested on: MOLT-4
assay-remarks: NCI tumour cell line growth inhibition, 48 h
The source made the active and inactive calls. No stated cut-off is given here; in the data, active = GI50 up to about 1.1 µM and inactive = higher.
measured-endpoint: GI50

>>> endpoint_result("CC(=O)OCC1OC(N2C(=S)N[C@H]([C@@H](O)[C@H](O)[C@H](O)CO)[C@H]2O)C(OC(C)=O)C(OC(C)=O)C1OC(C)=O (stereo not given in full)")
"> 100 µM (inactive)"
>>> endpoint_result("FC(F)(Sc1ncc[nH]1)c1nc2ccccc2o1")
"> 100 µM (inactive)"
>>> endpoint_result("CCOC(=O)C(C)NC(=O)N(C)C12CC3CC(CC(C3)C1)C2 (stereo not given)")
"63.2 µM (inactive)"
>>> endpoint_result("CN1C(=O)CCC2[C@@H]3CC=C4C[C@@H](O)CC[C@]4(C)C3CC[C@@]21C (stereo not given in full)")
"18.5 µM (inactive)"
>>> endpoint_result("CCCCC(=O)Nc1ccc2cc(C(=O)OC)c(ON3C(=O)c4ccccc4C3=O)nc2n1")
"28.9 µM (inactive)"
>>> endpoint_result("NNC(=O)Cn1c2ccc(Br)cc2c2nc3ccccc3nc21")
"11.7 µM (inactive)"
>>> endpoint_result("C=C(c1ccccc1)[C@@]1(O)CCCC[C@H]1NC(c1ccccc1)c1ccccc1")
"2.73 µM (inactive)"
>>> endpoint_result("CCCCCCCCCCCCCCCCCC(=O)OCC1OC(OC)C(NC(=O)N(CCCl)N=O)C(O)C1O (stereo not given)")
"4.41 µM (inactive)"

// field: GI50; key: "O=C(/C=C/c1ccccc1)CCC1C(=O)NC(=S)NC1=O" ; value = > 100 µM (inactive)

// field: GI50; key: "CCOC(=O)c1c(Br)c(-c2ccc([N+](=O)[O-])cc2)c(Br)n1C" ; value = > 10 µM (inactive)
